meta.source: patent US20240116985A1

Target System: full-length beta-Catenin (Uniprot ID P35222) (Homo sapiens, UniProt P35222)
Construct: 10 nM full-length beta-Catenin (Uniprot ID P35222)
Sequence (P35222 1-781): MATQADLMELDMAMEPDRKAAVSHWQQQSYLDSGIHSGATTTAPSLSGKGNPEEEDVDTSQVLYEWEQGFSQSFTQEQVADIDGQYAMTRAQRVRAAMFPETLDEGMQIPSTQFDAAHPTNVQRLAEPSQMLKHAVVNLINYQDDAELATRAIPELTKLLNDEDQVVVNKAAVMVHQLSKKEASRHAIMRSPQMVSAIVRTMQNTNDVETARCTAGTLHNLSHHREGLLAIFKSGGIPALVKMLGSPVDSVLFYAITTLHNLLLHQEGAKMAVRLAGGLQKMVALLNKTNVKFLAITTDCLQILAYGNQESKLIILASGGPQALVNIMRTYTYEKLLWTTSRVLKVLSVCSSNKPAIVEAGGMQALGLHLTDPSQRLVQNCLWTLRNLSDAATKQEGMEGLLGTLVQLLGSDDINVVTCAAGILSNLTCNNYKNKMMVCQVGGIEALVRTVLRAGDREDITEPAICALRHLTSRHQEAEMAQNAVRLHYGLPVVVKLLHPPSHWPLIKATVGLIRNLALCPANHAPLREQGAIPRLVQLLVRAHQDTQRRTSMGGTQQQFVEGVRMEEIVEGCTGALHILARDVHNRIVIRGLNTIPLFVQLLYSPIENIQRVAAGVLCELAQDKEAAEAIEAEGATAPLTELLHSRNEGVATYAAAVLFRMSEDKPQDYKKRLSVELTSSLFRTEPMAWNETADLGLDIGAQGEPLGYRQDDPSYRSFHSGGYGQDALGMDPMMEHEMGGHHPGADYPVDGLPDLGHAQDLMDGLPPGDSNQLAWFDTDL
Assay Protocol: Fluorescence polarization IC50 (beta-catenin / 5FAM-TCF4 10-53 competition)
Type: binding
Recorded Conditions: fluorescence polarization; read-out: beta-Catenin FP IC50
Starred links: 1 amine or outer side, 2 acyl side, 3 side chain; linkers in the order of their positions; H or OH if unused. Positions of bridges follow the written chain, without caps; N, C: chain ends. Non-standard residues stand in square brackets, D forms with d. Residues, ends and D or L forms follow the SMILES beside them. X3 = O=C([C@]1(CC=[*:3])CCCN1[*:1])[*:2]; Bta = N[C@@H](Cc1csc2ccccc12)C(=O)O; tBuAla = CC(C)(C)C[C@H](N)C(=O)O; 3Thi = N[C@@H](Cc1ccsc1)C(=O)O; R5 = C=CCCC[C@@](C)(N)C(=O)O; S5 = C=CCCC[C@](C)(N)C(=O)O
# binning rule on IC50: LOW: < 20 nM; MID: ≥ 20 nM and < 100 nM; HIGH: ≥ 100 nM

Molecule: COC[C@@H]1NC(=O)[C@H](Cc2ccccc2)NC(=O)[C@H](C)NC(=O)[C@H](C)NC(=O)[C@H](CCC(=O)O)NC(=O)[C@H](CC(=O)O)NC(=O)C2(CCCC=CCCCCCC[C@@](C)(C(=O)N[C@@H](Cc3ccccc3)C(=O)N[C@@H](Cc3csc4ccccc34)C(=O)N[C@@H](CCC(N)=O)C(N)=O)NC1=O)CCCC=CC[C@]1(CCCN1C(C)=O)C(=O)N[C@@H](CC(=O)O)C(=O)N[C@@H](C)C(=O)N2 (stereo partly drawn) [I-433]
Group Label: HIGH
//
Molecule: CC(=O)N1CCC[C@]12CC=CCCCC1(CCCC=CCCCCCC[C@@](C)(C(=O)N[C@@H](Cc3ccccc3)C(=O)N[C@@H](Cc3csc4ccccc34)C(=O)N[C@@H](CCC(N)=O)C(N)=O)NC(=O)[C@H](CCC(N)=O)NC(=O)[C@H](Cc3ccccc3)NC(=O)[C@H](C)NC(=O)[C@H](C)NC(=O)[C@H](CCC(=O)O)NC(=O)[C@H](CC(=O)O)NC1=O)NC(=O)[C@H](CC(F)F)NC(=O)[C@H](CC(=O)O)NC2=O (stereo partly drawn) [I-503]
Group Label: MID
//
Molecule: CC(=O)N1CCC[C@]12CC=CCCCC1(CCCC=CCCCOC(=O)N3CC[C@@](C(=O)N[C@@H](Cc4ccsc4)C(=O)N[C@@H](Cc4csc5ccccc45)C(=O)N[C@@H](CCC(N)=O)C(N)=O)(C3)NC(=O)[C@H](CC(N)=O)NC(=O)[C@H](Cc3ccccc3)NC(=O)[C@H](C)NC(=O)[C@H](C)NC(=O)[C@H](CCC(=O)O)NC(=O)[C@H](CC(=O)O)NC1=O)NC(=O)[C@H](CC(C)(C)C)NC(=O)[C@H](CC(=O)O)NC2=O (stereo partly drawn) [I-690]
Group Label: LOW
//
Molecule: CC(=O)N1CCC[C@]12CC=CCCCC1(CCCC=CCCCCCC[C@@](C)(C(=O)N[C@@H](Cc3ccsc3)C(=O)N[C@@H](Cc3csc4ccccc34)C(=O)N[C@@H](CCC(N)=O)C(N)=O)NC(=O)[C@H](CCC(N)=O)NC(=O)[C@H](Cc3ccccc3)NC(=O)[C@H](C)NC(=O)[C@H](C)NC(=O)[C@H](CCC(=O)O)NC(=O)[C@H](CC(=O)O)NC1=O)NC(=O)[C@H](C)NC(=O)[C@H](CC(=O)O)NC2=O (stereo partly drawn) [I-426]
Group Label: HIGH
//
Molecule: CC(=O)N1CCC[C@]12CC=CCCC[C@@](C)(C(=O)N[C@@H](CC(=O)O)C(=O)N[C@@H](CC(=O)O)C(=O)N[C@@H](C)C(=O)N[C@@H](C)C(=O)N[C@@H](Cc1ccccc1)C(=O)N[C@]1(C)CCCC=CCCC[C@@](C)(C(=O)N[C@@H](C)C(N)=O)NC(=O)[C@H](Cc3csc4ccccc34)NC(=O)[C@H](Cc3ccsc3)NC(=O)[C@H](C)NC1=O)NC(=O)[C@H](CC(C)(C)C)NC(=O)[C@H](CC(=O)O)NC2=O [I-1778] (Ac-[X3]D[tBuAla][S5]DDAAF[R5]A[3Thi][Bta][S5]A-NH2; staple 1-4, 10-14 (inferred))
Group Label: HIGH
//
Molecule: CC(=O)N1CCC[C@]12CC=CCCCC1(CCCC=CCCCOC(=O)N3CC[C@@](C(=O)N[C@@H](Cc4ccsc4)C(=O)N[C@@H](Cc4c[nH]c5ccccc45)C(=O)N[C@@H](CCC(N)=O)C(N)=O)(C3)NC(=O)[C@H](CC(N)=O)NC(=O)[C@H](Cc3ccccc3)NC(=O)[C@H](C)NC(=O)[C@H](C)NC(=O)[C@H](CC(=O)O)NC(=O)[C@H](CC(=O)O)NC1=O)NC(=O)[C@H](CC(C)(C)C)NC(=O)[C@H](CC(=O)O)NC2=O (stereo partly drawn) [I-2175]
Group Label: LOW
//
Molecule: CC(=O)N1CCC[C@]12CC=CCCCC1(CCCC=CCCCOC(=O)N3CCC(C(=O)N[C@@H](Cc4ccsc4)C(=O)N[C@@H](Cc4csc5ccccc45)C(=O)N[C@@H](CCC(N)=O)C(N)=O)(CC3)NC(=O)[C@H](CC(C)C)NC(=O)[C@H](Cc3ccccc3)NC(=O)[C@H](C)NC(=O)[C@H](C)NC(=O)[C@H](Cc3cccc(C(=O)O)c3)NC(=O)[C@H](CC(=O)O)NC1=O)NC(=O)[C@H](CC(C)(C)C)NC(=O)[C@H](CC(=O)O)NC2=O (stereo partly drawn) [I-2589]
Group Label: MID
//
Molecule: COCCOCCOCCOCCC(=O)NCCCC[C@@H]1NC(=O)[C@H](CCC(N)=O)NC(=O)[C@H](CC(=O)O)NC(=O)C2(CCCC=CCCCOC(=O)N3CC[C@@](C(=O)N[C@@H](Cc4ccccc4)C(=O)N[C@@H](Cc4csc5ccccc45)C(=O)N[C@@H](CC(=O)N4CCOCC4)C(N)=O)(C3)NC(=O)[C@H](CC(C)C)NC(=O)[C@H](Cc3ccccc3)NC(=O)[C@H](C)NC1=O)CCCC=CC[C@]1(CCCN1C(C)=O)C(=O)N[C@@H](CC(N)=O)C(=O)N[C@@H](CC1CCCCC1)C(=O)N2 (stereo partly drawn) [I-2526]
Group Label: HIGH

// next entry
Dear colleague, I would appreciate it if you could identify the bin for CC(=O)N1CCC[C@]12CC=CCCCC1(CCCC=CCCCOC(=O)N3CC[C@@](C(=O)N[C@@H](Cc4ccsc4)C(=O)N[C@@H](Cc4csc5ccccc45)C(=O)N[C@@H](C)C(N)=O)(C3)NC(=O)[C@H](CC(C)C)NC(=O)[C@H](Cc3ccccc3)NC(=O)[C@H](C)NC(=O)[C@H](CCC(N)=O)NC(=O)[C@H](Cc3cccc(C(=O)O)c3)NC(=O)[C@H](CC(=O)O)NC1=O)NC(=O)[C@H](CC(C)(C)C)NC(=O)[C@H](CC(=O)O)NC2=O (stereo partly drawn) [I-1918] and reply at your convenience.
LOW
